# procedure text: qHTS of pediatric cancer cell lines to identify multiple opportunities for drug repurposing: Primary screen for BT-12 cells (AID 1347101); also: nearly all actives have a fitted effect of over 25% in size
# assay conditions: BT-12 viability, CellTiter-Glo luminescence, 48 h; series mostly up to 57.3 µM
Results filed as inconclusive are left out. The source made the active and inactive calls. Calls follow the shape of the dose curve; as a rule, active = well fitted cell-killing curve with a large enough effect; inconclusive = small, poorly fitted or top-dose-only effect; inactive = flat fitted curve, though single readings scatter.
Assign a class; possible classes are 1.0 = active, 0.0 = inactive

# example entries with known answers
compound	class
N#C[C@H]1C[C@H]2C[C@@H]2N1C(=O)[C@@H](N)C12CC3CC(CC(O)(C3)C1)C2	0.0
CC(C)C(=O)Oc1ccc(CO)cc1[C@H](CCN(C(C)C)C(C)C)c1ccccc1	0.0
CC1=C(/C=C/C(C)=C/C=C/C(C)=C/C(=O)Nc2ccc(O)cc2)C(C)(C)CCC1	1.0
NC(=O)c1ccc2nc(-c3ccc(Oc4ccc(Cl)cc4)cc3)[nH]c2c1	1.0
C[C@@H](O)[C@H]1C(=O)N2C(C(=O)O)=C(S[C@@H]3CN[C@H](C(=O)N(C)C)C3)[C@H](C)[C@H]12	0.0
C[N+]1(C)[C@@H]2CC(OC(=O)[C@H](CO)c3ccccc3)C[C@H]1[C@H]1O[C@@H]12 (some centres not stated)	0.0

Query: Could you kindly confirm the outcome this assay logged for `CC1(C)Cc2c(sc(NC(=S)NC(=O)c3ccccc3)c2C(=O)O)CO1` ?
Response: 0.0

Query: Could you kindly confirm the outcome this assay logged for `O=c1cc(-c2ccccc2)oc2cc(O)cc(O)c12` ?
Response: 0.0

Query: Could you kindly confirm the outcome this assay logged for `Cc1c[nH]c(C=C2C(=O)Nc3ccccc32)c1CCC(=O)O` ?
Response: 0.0

Query: Could you kindly confirm the outcome this assay logged for O=C(O)C(O)Cc1ccc(O)c(O)c1 (configuration not stated) ?
Response: 0.0

Query: Could you kindly confirm the outcome this assay logged for `COC[C@@H](c1ccc(C(F)(F)F)cc1)N1CCN(C2(C)CCN(C(=O)c3c(C)ncnc3C)CC2)C[C@H]1C` ?
Response: 0.0

Query: Could you kindly confirm the outcome this assay logged for `Cn1c(N2CCCCS2(=O)=O)nc(C(=O)NCc2ccc(F)cc2)c(O)c1=O` ?
Response: 0.0
